TGI listing for selected compounds.
- System: HS 578T breast
- assay.overview: NCI tumour cell line growth inhibition, 48 h

[
  {
    "compound": "CCOC(=O)NC(C(F)(F)F)(C(F)(F)F)P(=O)(OCC(C)C)OCC(C)C",
    "qualifier.operator": "=",
    "TGI (µM)": 56.5
  },
  {
    "compound": "C/C(=N\\NC(=O)c1ccccc1N)c1ccccc1O",
    "qualifier.operator": ">",
    "TGI (µM)": 100
  },
  {
    "compound": "C=C1C(=O)O[C@H]2[C@H]1CC/C(COC(=O)NCc1c[nH]c3ccc(Br)cc13)=C\\CC[C@@]1(C)O[C@@H]21",
    "qualifier.operator": "=",
    "TGI (µM)": 7.09
  },
  {
    "compound": "c1ccc([P+](c2ccccc2)(c2ccccc2)c2ccc([P+](c3ccccc3)(c3ccccc3)c3ccccc3)c3ccccc23)cc1",
    "qualifier.operator": ">",
    "TGI (µM)": 100
  },
  {
    "compound": "C=CCCC1CCCCNC1=S (stereo not given)",
    "qualifier.operator": ">",
    "TGI (µM)": 10
  },
  {
    "compound": "CCNC(=O)OCC1C2=C(C(=O)C(C)=C(N)C2=O)N2CC3C(N3C)C12OC (stereo not given)",
    "qualifier.operator": ">",
    "TGI (µM)": 100
  },
  {
    "compound": "CCC(C)C1=NC(C(=O)N/C=C\\c2c[nH]c3cc(Br)c(Br)cc23)(C(C)C)NC1=O (stereo not given)",
    "qualifier.operator": "=",
    "TGI (µM)": 68.4
  },
  {
    "compound": "COc1ccc(CNC(=O)[C@H](Cc2ccc(O)cn2)NC(C)=O)cc1OC",
    "qualifier.operator": ">",
    "TGI (µM)": 100
  },
  {
    "compound": "O=[N+]([O-])c1ccc2c3c1[C@H]1O[C@H]1c1cccc(c1-3)[C@@H]1O[C@H]21",
    "qualifier.operator": "=",
    "TGI (µM)": 7.06
  },
  {
    "compound": "COc1cccc(-n2ncc3c(N/N=C/c4cccc(F)c4)ncnc32)c1",
    "qualifier.operator": "=",
    "TGI (µM)": 15.6
  },
  {
    "compound": "C=C(C)[C@@H]1CC[C@]2(C)[C@H](CC[C@@H]3[C@@H]([C@@](C)(O)CCC=C(C)C)CC[C@]32C)[C@@]1(C)CCC(=O)N1CCN(C)CC1",
    "qualifier.operator": "=",
    "TGI (µM)": 36.5
  },
  {
    "compound": "CC(=O)OCC1OC(n2c(-c3ccc(Cl)cc3)cc(-c3ccccc3)c(C#N)c2=S)C(OC(C)=O)C(OC(C)=O)C1OC(C)=O (stereo not given)",
    "qualifier.operator": "=",
    "TGI (µM)": 10.5
  },
  {
    "compound": "COc1c(O)ccc(C2=Cc3ccc(O)cc3OC2)c1OC",
    "qualifier.operator": ">",
    "TGI (µM)": 95.3
  },
  {
    "compound": "Nc1ncnc2c1ncn2C1OC(CO)C2OC21 (stereo not given)",
    "qualifier.operator": ">",
    "TGI (µM)": 100
  },
  {
    "compound": "Nc1c(C(=O)c2cccc(-c3ccncc3)c2)cnn1-c1ccc(F)cc1",
    "qualifier.operator": ">",
    "TGI (µM)": 25
  },
  {
    "compound": "CS(=O)(=O)c1ccc(NNc2cc(=O)[nH]c(=O)[nH]2)cc1",
    "qualifier.operator": ">",
    "TGI (µM)": 100
  },
  {
    "compound": "COc1ccc(N2C(=O)C3c4[nH]c5c(C)cccc5c4C4CCC(c5ccccc5)CC4C3C2=O)cc1 (stereo not given)",
    "qualifier.operator": "=",
    "TGI (µM)": 28.6
  },
  {
    "compound": "O=C1C=C(Nc2cccnc2)c2ccccc2C1=O",
    "qualifier.operator": "=",
    "TGI (µM)": 8.33
  },
  {
    "compound": "NC1CC(=O)c2ccccc21 (stereo not given)",
    "qualifier.operator": ">",
    "TGI (µM)": 100
  },
  {
    "compound": "CN(C)CCNC(=O)c1cccc(NC(=O)c2ccccc2)c1[N+](=O)[O-]",
    "qualifier.operator": ">",
    "TGI (µM)": 100
  }
]

* * *

- System: SK-MEL-5 melanoma
- assay.overview: NCI tumour cell line growth inhibition, 48 h
TGI listing for selected molecules.

[
  {
    "molecule": "Cc1c(Cl)ccc2c1NC(=O)C2(O)CC(=O)c1cccc2ccccc12 (stereo unspecified)",
    "TGI": "> 100 µM"
  },
  {
    "molecule": "Cc1ccc(C2=C(c3ccccc3)C(=O)C(c3ccccc3)=C2c2ccc(C)cc2)cc1",
    "TGI": "> 100 µM"
  },
  {
    "molecule": "COc1ccc(-n2cnc3c(NCC(=O)O)ncnc32)cc1",
    "TGI": "> 100 µM"
  },
  {
    "molecule": "Nc1ncnc2c1ncn2C1OC(CO)C2OC21 (stereo unspecified)",
    "TGI": "> 100 µM"
  },
  {
    "molecule": "N=C(N)c1ccc(-c2ccc(-c3cccs3)o2)cc1",
    "TGI": "3.02 µM"
  },
  {
    "molecule": "CCOC(=O)c1c(SCCCN2CCCCC2)n(-c2ccccc2)c(=S)n(-c2ccccc2)c1=O",
    "TGI": "30.1 µM"
  }
]

* * *

- Test system: MDA-MB-231 breast
- assay.overview: NCI tumour cell line growth inhibition, 48 h; in the data active = GI50 below about 0.43 µM; inactive = the rest
Classes used: active, inactive

[
  {
    "molecule": "CC(C)CNC(=O)c1ccc(NC(=O)N(CC(C)C)C(=O)c2ccc(N)c(OCCCN)c2)c(OCCCN=C(N)N)c1",
    "assigned.category": "inactive"
  },
  {
    "molecule": "COc1cc(/C=C\\c2cc(/C=C\\c3ccc(O)c(OC)c3)n(C(=O)COc3ccccc3)n2)ccc1O",
    "assigned.category": "inactive"
  },
  {
    "molecule": "COC(=O)[C@]12CC[C@@H](C(=O)/C=C/c3cccnc3)[C@@H]1[C@H]1CC[C@@H]3[C@@]4(C)C/C(=C/c5cccnc5)C(=O)C(C)(C)[C@@H]4CC[C@@]3(C)[C@]1(C)CC2",
    "assigned.category": "active"
  },
  {
    "molecule": "c1ccc(-c2cccc(-c3ccccn3)n2)nc1",
    "assigned.category": "active"
  },
  {
    "molecule": "CC(C)=C[C@@H]1C[C@H](C)[C@H]2CC[C@H](C)c3c(O)c(OC4OCC(O)C(O)C4O)c(C)c1c32 (stereo partly specified)",
    "assigned.category": "inactive"
  },
  {
    "molecule": "C=C1C(=O)O[C@H]2[C@H]1CC/C(COC(=O)NCc1c[nH]c3ccc(Br)cc13)=C\\CC[C@@]1(C)O[C@@H]21",
    "assigned.category": "inactive"
  },
  {
    "molecule": "Cc1oc2nc[nH]c(=O)c2c1C(=O)/C=C/c1ccc(Br)cc1",
    "assigned.category": "inactive"
  },
  {
    "molecule": "Cc1ccc(/C(=C/C=C(/C#N)C(N)=O)Sc2ncnn2C)cc1",
    "assigned.category": "inactive"
  },
  {
    "molecule": "CN(C)c1ccc(N=Nc2ccc(Br)cn2)c(O)c1",
    "assigned.category": "inactive"
  },
  {
    "molecule": "C=C1C(C(O)C[C@H](C)C2O[C@@]3(CCCCO3)CCC2C)O[C@@H]2CCC3(CCC(/C=C/[C@@H](C)C4CC(C)=CC5(O4)O[C@H](C[C@](C)(O)C(=O)O)CCC5O)O3)OC2[C@@H]1O (stereo partly specified)",
    "assigned.category": "active"
  },
  {
    "molecule": "C1CCC(C(CC2CCCCN2)C2CCCCC2)CC1 (stereo unspecified)",
    "assigned.category": "inactive"
  }
]

* * *

- System: 786-0 renal
- assay.overview: NCI tumour cell line growth inhibition, 48 h
TGI listing for selected molecules.

[
  {
    "molecule": "C=CCCC1CCCCNC1=S (stereo not given)",
    "assayed.target": "786-0 renal",
    "TGI": "> 10 µM"
  },
  {
    "molecule": "C=Cc1ccccc1C1C(C(=O)OCC)=C(C)N=C2OC(C(=O)OC)C(=O)N21 (stereo not given)",
    "assayed.target": "786-0 renal",
    "TGI": "> 100 µM"
  },
  {
    "molecule": "CN1C(=O)C23CC4(C56CC78SSC(CO)(C(=O)N7C5Nc5ccccc56)N(C)C8=O)c5ccccc5NC4N2C(=O)C1(CO)SS3 (stereo not given)",
    "assayed.target": "786-0 renal",
    "TGI": "0.172 µM"
  },
  {
    "molecule": "C[C@@]1(O)C2C3CC4C5C3C1[C@](O)(C42)[C@H]5Br (stereo not given in full)",
    "assayed.target": "786-0 renal",
    "TGI": "> 100 µM"
  },
  {
    "molecule": "C#CCN(Cc1ccc2nc(-c3ccccc3)c(Cl)nc2c1)c1cc(OC)c(OC)c(OC)c1",
    "assayed.target": "786-0 renal",
    "TGI": "> 100 µM"
  }
]

Origin of values: PubChem BioAssay (NCI)
